B1: LINE1-mini (parent)
chain: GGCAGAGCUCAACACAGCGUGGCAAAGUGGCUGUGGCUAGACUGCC

Variants of: B1
Assay: self-cleavage, relative activity (ratio to wild type); higher = more cleavage; in vitro, sequencing; the parent is a self-cleaving ribozyme
METRIC_NAME: self-cleavage
Number, no unit, nothing else.

Below: 5 variants and their reported self-cleavage.
SEQUENCE_CHANGE | self-cleavage
A11G G33C | 0.03
C31G U34G | 0.04
G7U G17A | 0.08
G1U A14U | 0.16
G21U U28C | 0.92

Prompt: Which self-cleavage value is on record for G19A U43G ?
Completion: 0.06

Prompt: Would you mind doing U9G A24U as well?
Completion: 0.18

Prompt: What do you get for G7U G29C ?
Completion: 0.03

Prompt: Continue with A16G C42A
Completion: 0.07

Prompt: Entry C10A G40A please
Completion: 0.02
